Overview of reported selectivity ratio across a group of molecules:
assay: Selectivity ratio of IC50 for HEK293 cells to IC50 for human MCF7 cells; format: ADME, cell-based; details: HEK293 cells versus MCF7 cells, read-out: Ratio IC50

# Molecule, Reported Relation, selectivity ratio
measured = [
    ("COc1cccc(/C=C/c2cccc(N)c2)c1", "=", 0.5),
    ("Nc1ccc(/C=C/c2cccc(O)c2)cc1", "=", 1),
    ("COc1ccccc1/C=C/c1ccc(N)cc1", "=", 0.3),
    ("Oc1ccc(/C=C/c2cccc(O)c2)cc1 [(E)-3,4'-STILBENDIOL]", "<", 0.1),
    ("Oc1ccc(/C=C/c2ccc(O)cc2)cc1 [TRANS-4,4'-DIHYDROXYSTILBENE]", "=", 0.2),
    ("Nc1ccc(/C=C/c2ccccc2)cc1 [(E)-4-STYRYLANILINE]", "=", 0.7),
]

---

assay: Selectivity ratio of IC50 for HEK293 cells to IC50 for human MCF7 cells; format: ADME, cell-based; settings: HEK293 cells versus MCF7 cells, read-out: Ratio IC50

# Smiles String, Reported Relation, selectivity ratio
records = [
    ("CCCCCCCCCCCC(=O)Nc1ccc(/C=C/c2ccccc2)cc1", "=", 1.7),
    ("Oc1ccccc1/C=C/c1ccccc1O", "=", 1.1),
    ("COc1cccc(/C=C/c2ccccc2N)c1", "<", 0.1),
    ("COc1ccccc1/C=C/c1ccccc1N", "<", 0.1),
    ("COc1ccc(/C=C/c2cccc(O)c2)cc1", "=", 1.1),
    ("Oc1ccc(/C=C/c2ccccc2O)cc1", "=", 0.8),
]

---

test: Selectivity ratio of IC50 for HEK293 cells to IC50 for human MCF7 cells; assay type: ADME, cell-based; details: HEK293 cells versus MCF7 cells, read-out: Ratio IC50

# Molecule, Reported Relation, selectivity ratio
rows = [
    ("COc1ccccc1/C=C/c1ccc(O)cc1", "=", 2.2),
    ("Nc1ccc(/C=C/c2ccccc2O)cc1", "=", 1),
    ("COc1ccccc1/C=C/c1cccc(N)c1", "=", 1.2),
    ("COc1ccc(/C=C/c2ccccc2O)cc1 [2-hydroxy-4'-methoxystilbene]", "=", 1.2),
    ("Oc1ccc(/C=C/c2cc(O)cc(O)c2)cc1", "=", 0.4),
    ("Nc1ccccc1/C=C/c1ccccc1O", "=", 0.7),
    ("Nc1cccc(/C=C/c2ccccc2)c1", "=", 6),
    ("Oc1cccc(/C=C/c2cccc(O)c2)c1", "=", 1),
    ("CCCCCCCCCCCC(=O)Nc1ccccc1/C=C/c1ccccc1", "=", 1.3),
    ("Oc1cccc(/C=C/c2ccccc2O)c1", "=", 0.9),
    ("Nc1cccc(/C=C/c2cccc(O)c2)c1", ">", 1.8),
    ("COc1ccccc1/C=C/c1cccc(O)c1", "=", 1),
    ("Nc1ccccc1/C=C/c1ccc(O)cc1", "<", 0.1),
    ("CCCCCCCCCCCC(=O)Nc1cccc(/C=C/c2ccccc2)c1", "=", 3.3),
    ("Nc1cccc(/C=C/c2ccc(O)cc2)c1", "=", 1.2),
    ("COc1cccc(/C=C/c2ccccc2O)c1", "=", 1.1),
    ("Nc1cccc(/C=C/c2ccccc2O)c1", "=", 3.9),
    ("COc1cccc(/C=C/c2ccc(O)cc2)c1 [(E)-5-METHOXY-4'-STILBENOL]", "=", 1.1),
    ("COc1ccc(/C=C/c2ccc(O)cc2)cc1", "=", 0.3),
    ("Nc1ccc(/C=C/c2ccc(O)cc2)cc1", "=", 0.4),
    ("Nc1ccccc1/C=C/c1cccc(O)c1", "=", 1.2),
    ("Nc1ccccc1/C=C/c1ccccc1", "=", 0.9),
    ("COc1ccc(/C=C/c2ccccc2N)cc1", "=", 1.4),
    ("COc1cccc(/C=C/c2ccc(N)cc2)c1", "=", 0.3),
    ("COc1ccc(/C=C/c2ccc(N)cc2)cc1", "=", 5.7),
    ("COc1ccccc1/C=C/c1ccccc1O", "=", 0.8),
    ("COc1ccc(/C=C/c2cccc(N)c2)cc1", "=", 0.5),
    ("COc1cccc(/C=C/c2cccc(O)c2)c1", "=", 1.5),
]

---

tested on: HT-29; experiment: Cytotoxicity against human HT-29 cells assessed inhibition of cell proliferation after 3 days by MTT assay; details: HT-29, 72 h
Please map values of IC50 to classes as shown: band A (below 20 µg/mL), band B (20 µg/mL to below 30 µg/mL), band C (30 µg/mL or more)

# Compound, Class
measured = [
    ("CCCCCCCCCCCC(=O)Nc1cccc(/C=C/c2ccccc2)c1", "band C"),
    ("COc1cccc(/C=C/c2ccc(O)cc2)c1 [(E)-5-METHOXY-4'-STILBENOL]", "band B"),
    ("Oc1ccccc1/C=C/c1ccccc1O", "band B"),
    ("COc1cccc(/C=C/c2ccccc2N)c1", "band B"),
    ("COc1ccc(/C=C/c2ccc(O)cc2)cc1", "band A"),
    ("Oc1ccc(/C=C/c2ccc(O)cc2)cc1 [TRANS-4,4'-DIHYDROXYSTILBENE]", "band C"),
    ("Nc1ccc(/C=C/c2ccccc2)cc1 [(E)-4-STYRYLANILINE]", "band A"),
    ("Nc1cccc(/C=C/c2cccc(O)c2)c1", "band C"),
    ("CCCCCCCCCCCC(=O)Nc1ccc(/C=C/c2ccccc2)cc1", "band C"),
    ("COc1ccccc1/C=C/c1cccc(N)c1", "band B"),
    ("Nc1ccccc1/C=C/c1ccccc1", "band A"),
    ("COc1ccc(/C=C/c2ccccc2N)cc1", "band C"),
    ("COc1ccccc1/C=C/c1ccc(N)cc1", "band B"),
    ("Nc1cccc(/C=C/c2ccc(O)cc2)c1", "band C"),
    ("Oc1ccc(/C=C/c2ccccc2O)cc1", "band B"),
    ("COc1cccc(/C=C/c2ccccc2O)c1", "band B"),
    ("COc1ccccc1/C=C/c1cccc(O)c1", "band A"),
    ("COc1ccccc1/C=C/c1ccc(O)cc1", "band B"),
    ("Oc1ccc(/C=C/c2cccc(O)c2)cc1 [(E)-3,4'-STILBENDIOL]", "band A"),
    ("COc1ccc(/C=C/c2ccccc2O)cc1 [2-hydroxy-4'-methoxystilbene]", "band A"),
    ("Oc1cccc(/C=C/c2cccc(O)c2)c1", "band B"),
    ("COc1ccc(/C=C/c2cccc(N)c2)cc1", "band A"),
    ("Oc1cccc(/C=C/c2ccccc2O)c1", "band B"),
    ("Nc1cccc(/C=C/c2ccccc2)c1", "band A"),
    ("CCCCCCCCCCCC(=O)Nc1ccccc1/C=C/c1ccccc1", "band A"),
    ("COc1ccc(/C=C/c2cccc(O)c2)cc1", "band B"),
    ("Nc1ccccc1/C=C/c1ccc(O)cc1", "band C"),
    ("COc1ccc(/C=C/c2ccc(N)cc2)cc1", "band A"),
    ("Nc1ccccc1/C=C/c1ccccc1O", "band C"),
    ("COc1cccc(/C=C/c2cccc(O)c2)c1", "band A"),
    ("COc1cccc(/C=C/c2ccc(N)cc2)c1", "band A"),
    ("COc1ccccc1/C=C/c1ccccc1N", "band C"),
    ("Nc1ccc(/C=C/c2ccccc2O)cc1", "band C"),
    ("COc1ccccc1/C=C/c1ccccc1O", "band B"),
    ("Oc1ccc(/C=C/c2cc(O)cc(O)c2)cc1", "band C"),
    ("Nc1ccc(/C=C/c2cccc(O)c2)cc1", "band C"),
]

---

assay: Selectivity ratio of IC50 for HEK293 cells to IC50 for human HT-29 cells; format: ADME, cell-based; settings: HEK293 cells versus HT-29 cells, read-out: Ratio IC50
Value Type: selectivity ratio

# Compound, Value Type, Reported Relation, Observed Value
records = [
    ("Oc1ccc(/C=C/c2cc(O)cc(O)c2)cc1 [RESVERATROL]", "selectivity ratio", "=", 0.2),
    ("COc1cccc(/C=C/c2ccc(N)cc2)c1", "selectivity ratio", "=", 1.1),
    ("Nc1cccc(/C=C/c2ccc(O)cc2)c1", "selectivity ratio", "=", 0.1),
    ("Nc1ccc(/C=C/c2ccccc2)cc1 [(E)-4-STYRYLANILINE]", "selectivity ratio", "=", 2.6),
    ("COc1ccc(/C=C/c2ccc(N)cc2)cc1", "selectivity ratio", "=", 3.4),
    ("COc1ccccc1/C=C/c1cccc(N)c1", "selectivity ratio", "=", 1.8),
    ("COc1cccc(/C=C/c2cccc(N)c2)c1", "selectivity ratio", "=", 0.8),
    ("Nc1ccc(/C=C/c2ccc(O)cc2)cc1", "selectivity ratio", "=", 0.03),
    ("COc1ccc(/C=C/c2ccccc2N)cc1", "selectivity ratio", "<", 0.1),
    ("COc1cccc(/C=C/c2ccccc2N)c1", "selectivity ratio", "<", 0.1),
    ("COc1ccc(/C=C/c2cccc(O)c2)cc1", "selectivity ratio", "=", 1.1),
    ("COc1cccc(/C=C/c2ccc(O)cc2)c1 [(E)-5-METHOXY-4'-STILBENOL]", "selectivity ratio", "=", 0.9),
    ("Oc1cccc(/C=C/c2cccc(O)c2)c1", "selectivity ratio", "=", 0.8),
    ("Oc1ccc(/C=C/c2ccccc2O)cc1", "selectivity ratio", "=", 0.8),
    ("Nc1cccc(/C=C/c2cccc(O)c2)c1", "selectivity ratio", ">", 2.3),
    ("COc1cccc(/C=C/c2ccccc2O)c1", "selectivity ratio", "=", 0.8),
    ("COc1ccc(/C=C/c2ccccc2O)cc1 [2-hydroxy-4'-methoxystilbene]", "selectivity ratio", "=", 2.1),
    ("Nc1ccccc1/C=C/c1ccccc1", "selectivity ratio", "=", 0.1),
    ("CCCCCCCCCCCC(=O)Nc1ccccc1/C=C/c1ccccc1", "selectivity ratio", "=", 6.4),
    ("CCCCCCCCCCCC(=O)Nc1cccc(/C=C/c2ccccc2)c1", "selectivity ratio", "<", 0.1),
    ("COc1ccc(/C=C/c2ccc(O)cc2)cc1", "selectivity ratio", "=", 0.2),
    ("Nc1ccc(/C=C/c2cccc(O)c2)cc1", "selectivity ratio", "=", 0.6),
    ("Nc1cccc(/C=C/c2ccccc2)c1", "selectivity ratio", "=", 6.5),
    ("COc1ccccc1/C=C/c1ccccc1N", "selectivity ratio", "<", 0.1),
    ("Oc1ccc(/C=C/c2ccc(O)cc2)cc1 [TRANS-4,4'-DIHYDROXYSTILBENE]", "selectivity ratio", "<", 0.1),
    ("Nc1cccc(/C=C/c2ccccc2O)c1", "selectivity ratio", "=", 3.2),
]
